- Tgt: T1, canine NGF tagged at the C-terminus with the Flag tag (canine, UniProt A0A8I3PYI3 122-241)
- T1 construct: mature; Expressed with baculovirus technology; also called feline NGF (processed form identical)
- Test Description: SPR off-rate screen, Fab-SASA on BSA chip
Bucketed by reported koff, buckets being bucket A: < 0.0005 s⁻¹; bucket B: ≥ 0.0005 s⁻¹ and < 0.0007 s⁻¹; bucket C: ≥ 0.0007 s⁻¹

{"Binder": "felinized clone 101 Fab-SASA variant T60H (VH) (Fab, V domains shown, not shown: small tags and cut ends) VH: DVQLVESGGDLVKPGGSLRLTCVASGLSLTSSSMSWVRQAPGKGLQWVSTIYSNGGTYYHDSVKGRFTISKDNAENTLYLQMNNLKTEDTATYYCASIYYYDADYLHWYFDFWGQGALVTVSS VL: EIQMTQSPTSLSASVGDRVTITCRASEGISNNLSWYQQTPGKAPKLLIYATSNLHSGVPSRFSGSGSGTDFTLTISSLQPEDFATYYCQQGYKWPLTFGGGTKLEITR", "Label": "bucket B"}
{"Binder": "felinized clone 101 Fab-SASA variant F112H (VH) (Fab, V domains shown, not shown: small tags and cut ends) VH: DVQLVESGGDLVKPGGSLRLTCVASGLSLTSSSMSWVRQAPGKGLQWVSTIYSNGGTYYTDSVKGRFTISKDNAENTLYLQMNNLKTEDTATYYCASIYYYDADYLHWYFDHWGQGALVTVSS VL: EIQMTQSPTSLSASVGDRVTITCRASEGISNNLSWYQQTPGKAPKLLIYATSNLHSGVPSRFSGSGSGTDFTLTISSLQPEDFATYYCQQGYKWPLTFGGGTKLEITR", "Label": "bucket B"}
{"Binder": "felinized clone 101 Fab-SASA variant S30Q (VL) (Fab, V domains shown, not shown: small tags and cut ends) VH: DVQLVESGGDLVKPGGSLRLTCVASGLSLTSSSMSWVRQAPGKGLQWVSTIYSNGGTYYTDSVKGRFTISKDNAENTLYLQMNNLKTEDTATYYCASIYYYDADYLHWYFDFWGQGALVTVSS VL: EIQMTQSPTSLSASVGDRVTITCRASEGIQNNLSWYQQTPGKAPKLLIYATSNLHSGVPSRFSGSGSGTDFTLTISSLQPEDFATYYCQQGYKWPLTFGGGTKLEITR", "Label": "bucket A"}
{"Binder": "felinized clone 101 Fab-SASA variant N53L (VL) (Fab, V domains shown, not shown: small tags and cut ends) VH: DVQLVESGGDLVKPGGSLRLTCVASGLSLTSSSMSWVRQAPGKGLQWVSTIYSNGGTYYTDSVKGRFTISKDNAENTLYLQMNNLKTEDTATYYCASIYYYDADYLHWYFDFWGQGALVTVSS VL: EIQMTQSPTSLSASVGDRVTITCRASEGISNNLSWYQQTPGKAPKLLIYATSLLHSGVPSRFSGSGSGTDFTLTISSLQPEDFATYYCQQGYKWPLTFGGGTKLEITR", "Label": "bucket B"}
{"Binder": "felinized clone 101 Fab-SASA variant S56D (VL) (Fab, V domains shown, not shown: small tags and cut ends) VH: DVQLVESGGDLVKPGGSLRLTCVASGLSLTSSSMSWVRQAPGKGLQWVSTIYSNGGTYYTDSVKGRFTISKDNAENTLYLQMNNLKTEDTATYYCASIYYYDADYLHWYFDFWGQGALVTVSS VL: EIQMTQSPTSLSASVGDRVTITCRASEGISNNLSWYQQTPGKAPKLLIYATSNLHDGVPSRFSGSGSGTDFTLTISSLQPEDFATYYCQQGYKWPLTFGGGTKLEITR", "Label": "bucket C"}
{"Binder": "felinized clone 101 Fab-SASA variant S35V (VH) (Fab, V domains shown, not shown: small tags and cut ends) VH: DVQLVESGGDLVKPGGSLRLTCVASGLSLTSSSMVWVRQAPGKGLQWVSTIYSNGGTYYTDSVKGRFTISKDNAENTLYLQMNNLKTEDTATYYCASIYYYDADYLHWYFDFWGQGALVTVSS VL: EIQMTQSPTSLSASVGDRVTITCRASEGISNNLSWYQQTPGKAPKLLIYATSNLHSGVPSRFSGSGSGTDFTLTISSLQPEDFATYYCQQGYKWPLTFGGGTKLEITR", "Label": "bucket A"}
{"Binder": "felinized clone 101 Fab-SASA variant S30A (VL) (Fab, V domains shown, not shown: small tags and cut ends) VH: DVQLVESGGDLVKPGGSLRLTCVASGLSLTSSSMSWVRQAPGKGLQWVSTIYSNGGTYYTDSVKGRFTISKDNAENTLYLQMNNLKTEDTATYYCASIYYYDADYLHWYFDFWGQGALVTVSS VL: EIQMTQSPTSLSASVGDRVTITCRASEGIANNLSWYQQTPGKAPKLLIYATSNLHSGVPSRFSGSGSGTDFTLTISSLQPEDFATYYCQQGYKWPLTFGGGTKLEITR", "Label": "bucket A"}
{"Binder": "felinized clone 101 Fab-SASA variant S56N (VL) (Fab, V domains shown, not shown: small tags and cut ends) VH: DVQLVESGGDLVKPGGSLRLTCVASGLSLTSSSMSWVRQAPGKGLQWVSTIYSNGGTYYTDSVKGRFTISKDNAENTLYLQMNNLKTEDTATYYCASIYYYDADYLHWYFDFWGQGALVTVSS VL: EIQMTQSPTSLSASVGDRVTITCRASEGISNNLSWYQQTPGKAPKLLIYATSNLHNGVPSRFSGSGSGTDFTLTISSLQPEDFATYYCQQGYKWPLTFGGGTKLEITR", "Label": "bucket C"}

Ref: patent US20250011410A1
